The origin of these recorded values is patent US8853203B2.

measuredOn: human mGluR5a receptors (Homo sapiens (Human), UniProt P41594)
Sequence (P41594 other isoform, or with tags, fused parts or gaps): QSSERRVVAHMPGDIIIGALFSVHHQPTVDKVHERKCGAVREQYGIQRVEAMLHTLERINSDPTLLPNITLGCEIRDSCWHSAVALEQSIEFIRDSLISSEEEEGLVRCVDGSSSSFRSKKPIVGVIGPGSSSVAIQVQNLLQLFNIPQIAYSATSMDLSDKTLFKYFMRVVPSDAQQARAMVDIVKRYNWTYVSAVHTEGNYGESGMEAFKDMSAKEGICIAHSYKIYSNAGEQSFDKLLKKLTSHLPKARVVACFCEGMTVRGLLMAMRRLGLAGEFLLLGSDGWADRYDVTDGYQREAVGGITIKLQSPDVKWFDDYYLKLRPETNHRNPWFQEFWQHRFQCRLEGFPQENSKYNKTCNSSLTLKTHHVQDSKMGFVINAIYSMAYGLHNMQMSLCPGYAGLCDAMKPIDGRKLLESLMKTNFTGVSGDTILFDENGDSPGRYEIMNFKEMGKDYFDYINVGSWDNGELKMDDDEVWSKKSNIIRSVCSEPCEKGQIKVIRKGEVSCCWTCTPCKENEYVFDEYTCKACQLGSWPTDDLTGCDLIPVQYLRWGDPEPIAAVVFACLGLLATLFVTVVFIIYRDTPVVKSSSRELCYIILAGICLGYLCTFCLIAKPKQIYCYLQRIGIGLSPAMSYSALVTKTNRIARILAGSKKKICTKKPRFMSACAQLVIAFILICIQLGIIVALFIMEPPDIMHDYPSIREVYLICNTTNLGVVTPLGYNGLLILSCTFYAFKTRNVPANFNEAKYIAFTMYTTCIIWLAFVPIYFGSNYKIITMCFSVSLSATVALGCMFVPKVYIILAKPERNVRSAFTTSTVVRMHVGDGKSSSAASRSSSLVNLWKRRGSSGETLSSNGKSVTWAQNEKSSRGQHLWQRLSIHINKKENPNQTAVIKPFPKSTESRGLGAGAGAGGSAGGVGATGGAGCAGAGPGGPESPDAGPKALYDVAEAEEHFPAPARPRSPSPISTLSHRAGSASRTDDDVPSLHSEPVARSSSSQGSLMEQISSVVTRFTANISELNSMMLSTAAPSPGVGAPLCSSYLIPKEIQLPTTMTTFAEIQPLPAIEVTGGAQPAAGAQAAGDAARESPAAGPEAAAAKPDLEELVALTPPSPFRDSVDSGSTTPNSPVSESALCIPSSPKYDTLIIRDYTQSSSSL
assayMethodText: inhibition of glutamate-induced elevation of intracellular calcium in L(tk-) cells expressing human mGluR5a
Format: cell-based
experimentalConditions: glutamate-induced intracellular calcium elevation, L(tk-) cells expressing human mGluR5a; read-out: mGluR5 IC50
Criterion: IC50 strictly under 70 nM. Met: 1. Not met: 0.

[[record]]
compound = "O=C1CN=C(n2cnc(C3CC3)c2)C=C2c3cccc(-c4ncco4)c3CCN12"
classlabel = 1

[[record]]
compound = "O=C1CN=C(c2cccs2)C=C2c3cccc(F)c3CCN12"
classlabel = 0

[[record]]
compound = "O=C1CN=C(n2cnc(C3(O)COC3)c2)C=C2c3cccc(-c4ccc(F)nc4)c3CCN12 [Example 106c]"
classlabel = 0

[[record]]
compound = "Cc1coc(-c2cccc3c2CCN2C(=O)CN=C(n4cnc(C5CC5)c4)C=C32)n1"
classlabel = 0

[[record]]
compound = "COc1cccc(C2=NCC(=O)N3CCc4c(OC)cccc4C3=C2)c1"
classlabel = 0

[[record]]
compound = "Cc1cn(C2=NCC(=O)N3CCc4c(cccc4-c4ccc(F)nc4)C3=C2)cn1"
classlabel = 1

[[record]]
compound = "C#Cc1cn(C2=NCC(=O)N3CCc4c(cccc4-c4cscn4)C3=C2)cn1"
classlabel = 0

[[record]]
compound = "CCc1cc(C2=NCC(=O)N3CCc4c(OC)cccc4C3=C2)ccn1"
classlabel = 0


Quick check: IC50 of Cc1ncn(C2=NCC(=O)N3CCc4c(cccc4-c4cnc(F)cn4)C3=C2)n1 under 70 nM? 1

Quick check: IC50 of COCc1cn(C2=NCC(=O)N3CCc4c(cccc4C4CC4)C3=C2)cn1 under 70 nM? 1

Quick check: IC50 of CCc1cn(C2=NCC(=O)N3CCc4c(cccc4C4(F)COC4)C3=C2)cn1 under 70 nM? 0
